Item-by-item account of Kd
assay system: corn root FNR (ferredoxin:NADP+ reductase) (Zea mays, UniProt B4G043, Y381S)
protocol description: titration, visible absorption of FAD
Type: binding

{"compound": "NC(=O)c1ccc[n+]([C@@H]2O[C@H](COP(=O)(O)OP(=O)(O)OC[C@H]3O[C@@H](n4cnc5c(N)ncnc54)[C@H](O)[C@@H]3O)[C@@H](O)[C@H]2O)c1", "assay system": "corn root FNR (ferredoxin:NADP+ reductase) (Zea mays, UniProt B4G043, Y381S)", "Kd": "145 µM"}
{"compound": "NC(=O)c1cccnc1 [nicotinamide]", "assay system": "corn root FNR (ferredoxin:NADP+ reductase) (Zea mays, UniProt B4G043, Y381S)", "Kd": "3000 µM"}

* * *

assay system: corn root FNR (ferredoxin:NADP+ reductase) (Zea mays, UniProt B4G043, Y381S)
Sequence (B4G043 66-381 Y381S): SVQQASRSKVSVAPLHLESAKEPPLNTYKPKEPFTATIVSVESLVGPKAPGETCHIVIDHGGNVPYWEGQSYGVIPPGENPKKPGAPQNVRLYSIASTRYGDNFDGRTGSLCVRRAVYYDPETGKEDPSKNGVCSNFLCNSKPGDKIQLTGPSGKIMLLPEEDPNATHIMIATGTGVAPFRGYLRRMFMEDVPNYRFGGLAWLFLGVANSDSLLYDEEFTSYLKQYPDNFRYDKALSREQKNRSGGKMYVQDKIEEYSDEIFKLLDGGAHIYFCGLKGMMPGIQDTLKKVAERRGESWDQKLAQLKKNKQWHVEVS
protocol description: anaerobic titration, visible absorption of FAD
Assay type: binding

{"compound structure": "NC(=O)c1ccc[n+]([C@@H]2O[C@H](COP(=O)(O)OP(=O)(O)OC[C@H]3O[C@@H](n4cnc5c(N)ncnc54)[C@H](OP(=O)(O)O)[C@@H]3O)[C@@H](O)[C@H]2O)c1", "Kd": "≤ 20 nM"}
